Reported SI (selectivity index) for target or system HepG2 cells, by entry.
parameter: SI (selectivity index)

                                   compound  reported
0  COc1ccc2cc3[n+](cc2c1OCc1ccccc1Br)CCc1cc2c(cc1-3)OCO2 [16e, 9-O-(2-brombenzyl)berberine chloride]      3.92
1  COc1ccc2cc3[n+](cc2c1OCc1cccc(Br)c1)CCc1cc2c(cc1-3)OCO2 [16f, 9-O-(3-brombenzyl)berberine chloride]      2.34
2  COc1ccc2cc3[n+](cc2c1OCc1ccccc1C)CCc1cc2c(cc1-3)OCO2 [16b, 9-O-(2-methylbenzyl)berberine chloride]      2.32
3  COc1ccc2cc3[n+](cc2c1OCc1cccc(C)c1)CCc1cc2c(cc1-3)OCO2 [16c, 9-O-(3-methylbenzyl)berberine chloride]      3.49

* * *

Form field: viability at 40 µM (one value per entry).
# assay_method_text: in vitro
# experimental_parameters: human, % of cell viability compared to control, 3. measurement, HepG2, 40 µM
parameter: viability at 40 µM

In [3]: df
Out[3]:
                                   molecule           parameter  reported
0  COc1ccc2cc3[n+](cc2c1OCc1ccccc1Br)CCc1cc2c(cc1-3)OCO2 [16e, 9-O-(2-brombenzyl)berberine chloride]  viability at 40 µM     14.8%
1  COc1ccc2cc3[n+](cc2c1OCc1ccc(Cl)cc1)CCc1cc2c(cc1-3)OCO2 [16i, 9-O-(4-chlorbenzyl)berberine chloride]  viability at 40 µM     25.8%

* * *

# assay_method_text: in vitro
# experimental_parameters: human, % of cell viability compared to control, 1. measurement, HepG2, 30 µM
Form field: viability at 30 µM (one value per entry).
parameter: viability at 30 µM (%)

In [3]: df
Out[3]:
                                   compound           parameter  reported
0  COc1ccc2cc3[n+](cc2c1OCc1ccc(Cl)cc1)CCc1cc2c(cc1-3)OCO2 [16i, 9-O-(4-chlorbenzyl)berberine chloride]  viability at 30 µM      42.3
1  COc1ccc2cc3[n+](cc2c1OCc1ccccc1Br)CCc1cc2c(cc1-3)OCO2 [16e, 9-O-(2-brombenzyl)berberine chloride]  viability at 30 µM      34.3

* * *

# assay_method_text: in vitro
# experimental_parameters: human, % of cell viability compared to control, 1. measurement, HepG2, 100 µM
Classify: criterion met when viability at 100 µM is strictly less than 10%; criterion not met when viability at 100 µM is not.

>>> print(df.to_string())
                                   molecule     discrete_label
0  COc1ccc2cc3[n+](cc2c1OCc1cccc(C)c1)CCc1cc2c(cc1-3)OCO2 [16c, 9-O-(3-methylbenzyl)berberine chloride]  criterion not met
1  COc1ccc2cc3[n+](cc2c1OCc1ccc(Br)cc1)CCc1cc2c(cc1-3)OCO2 [16g, 9-O-(4-brombenzyl)berberine chloride]  criterion not met
2  COc1ccc2cc3[n+](cc2c1OCc1cccc(Br)c1)CCc1cc2c(cc1-3)OCO2 [16f, 9-O-(3-brombenzyl)berberine chloride]  criterion not met
3  COc1ccc2cc3[n+](cc2c1OCc1cccc(Cl)c1)CCc1cc2c(cc1-3)OCO2 [16h, 9-O-(3-chlorbenzyl)berberine chloride]  criterion not met
4  COc1ccc2cc3[n+](cc2c1OCc1ccc(C)cc1)CCc1cc2c(cc1-3)OCO2 [16d, 9-O-(4-methylbenzyl)berberine chloride]      criterion met
5  COc1ccc2cc3[n+](cc2c1OCc1ccccc1)CCc1cc2c(cc1-3)OCO2 [16a, 9-O-benzylberberine chloride]      criterion met
6  COc1ccc2cc3[n+](cc2c1OCc1ccc(Cl)c(Cl)c1)CCc1cc2c(cc1-3)OCO2 [16k]      criterion met
7  COc1ccc2cc3[n+](cc2c1OCc1ccccc1C)CCc1cc2c(cc1-3)OCO2 [16b, 9-O-(2-methylbenzyl)berberine chloride]  criterion not met

* * *

# assay_method_text: in vitro
# experimental_parameters: human, % of cell viability compared to control, 3. measurement, HepG2, 5 µM
parameter: viability at 5 µM (%)

>>> df
                                   compound          parameter  reported
0  COc1ccc2cc3[n+](cc2c1OCc1cccc(C)c1)CCc1cc2c(cc1-3)OCO2 [16c, 9-O-(3-methylbenzyl)berberine chloride]  viability at 5 µM      78.9
1  COc1ccc2cc3[n+](cc2c1OCc1ccccc1Br)CCc1cc2c(cc1-3)OCO2 [16e, 9-O-(2-brombenzyl)berberine chloride]  viability at 5 µM        68
2  COc1ccc2cc3[n+](cc2c1OCc1ccc(C)cc1)CCc1cc2c(cc1-3)OCO2 [16d, 9-O-(4-methylbenzyl)berberine chloride]  viability at 5 µM      68.2
3  COc1ccc2cc3[n+](cc2c1OCc1ccccc1C)CCc1cc2c(cc1-3)OCO2 [16b, 9-O-(2-methylbenzyl)berberine chloride]  viability at 5 µM      88.8
4  COc1ccc2cc3[n+](cc2c1OCc1ccccc1)CCc1cc2c(cc1-3)OCO2 [16a, 9-O-benzylberberine chloride]  viability at 5 µM      76.4
5  COc1ccc2cc3[n+](cc2c1OCc1cccc(Cl)c1)CCc1cc2c(cc1-3)OCO2 [16h, 9-O-(3-chlorbenzyl)berberine chloride]  viability at 5 µM      54.4
6  COc1ccc2cc3[n+](cc2c1OCc1ccc(Cl)c(Cl)c1)CCc1cc2c(cc1-3)OCO2 [16k]  viability at 5 µM        67
7  COc1ccc2cc3[n+](cc2c1OCc1ccc(Br)cc1)CCc1cc2c(cc1-3)OCO2 [16g, 9-O-(4-brombenzyl)berberine chloride]  viability at 5 µM      72.1
8  COc1ccc2cc3[n+](cc2c1OCc1ccc(Cl)cc1)CCc1cc2c(cc1-3)OCO2 [16i, 9-O-(4-chlorbenzyl)berberine chloride]  viability at 5 µM      82.3
9  COc1ccc2cc3[n+](cc2c1OCc1cccc(Br)c1)CCc1cc2c(cc1-3)OCO2 [16f, 9-O-(3-brombenzyl)berberine chloride]  viability at 5 µM      62.6

* * *

# System: Mycolicibacterium aurum DSM 43999 (ATCC 23366)
# assay_method_text: Antimycobacterial microdilution broth assay (resazurin), M. aurum
# Assay type: cell-based
# experimental_parameters: Mycolicibacterium aurum, 72 h, read-out: MIC M. aurum, microdilution broth, resazurin, 72 h
Form field: MIC (one value per entry).
parameter: MIC (µg/mL)

molecule	value_operator	reported
COc1cc2c(cc1O)[C@@H]1Cc3ccc(OC)c(OC)c3CN1CC2	≥	250
COc1ccc2cc3[n+](cc2c1OCc1ccccc1Br)CCc1cc2c(cc1-3)OCO2 [16e, 9-O-(2-brombenzyl)berberine chloride]	=	0.78
COc1ccc2cc3[n+](cc2c1OCc1ccccc1)CCc1cc2c(cc1-3)OCO2 [16a, 9-O-benzylberberine chloride]	=	3.12
COc1ccc2cc3[n+](cc2c1OCc1ccc(Cl)c(Cl)c1)CCc1cc2c(cc1-3)OCO2 [16k]	=	1.56
COc1ccc2cc3[n+](cc2c1OCc1ccc(Cl)cc1)CCc1cc2c(cc1-3)OCO2 [16i, 9-O-(4-chlorbenzyl)berberine chloride]	=	3.12
COc1ccc2cc3[n+](cc2c1OCc1cccc(Cl)c1)CCc1cc2c(cc1-3)OCO2 [16h, 9-O-(3-chlorbenzyl)berberine chloride]	=	1.56
c1cc2c(c3c1C[C@H]1c4cc5c(cc4CCN1C3)OCO5)OCO2	≥	125
COc1ccc2c(c1OC)C(OC1c3c(ccc(OC)c3OC)-c3ccc4cc5c(cc4c3N1C)OCO5)N(C)c1c-2ccc2cc3c(cc12)OCO3 (stereo not drawn) [compound 5, bis-[6-(5,6-dihydrochelerythrinyl)]ether]	=	31.2

* * *

# assay_method_text: in vitro
# experimental_parameters: human, % of cell viability compared to control, 1. measurement, HepG2, 25 µM
Form field: viability at 25 µM (one value per entry).
parameter: viability at 25 µM (%)

>>> print(df.to_string())
                                   molecule           parameter  reported
0  COc1ccc2cc3[n+](cc2c1OCc1ccc(Cl)c(Cl)c1)CCc1cc2c(cc1-3)OCO2 [16k]  viability at 25 µM      43.4
1  COc1ccc2cc3[n+](cc2c1OCc1cccc(Cl)c1)CCc1cc2c(cc1-3)OCO2 [16h, 9-O-(3-chlorbenzyl)berberine chloride]  viability at 25 µM      44.2
2  COc1ccc2cc3[n+](cc2c1OCc1ccccc1C)CCc1cc2c(cc1-3)OCO2 [16b, 9-O-(2-methylbenzyl)berberine chloride]  viability at 25 µM      48.6
3  COc1ccc2cc3[n+](cc2c1OCc1ccc(C)cc1)CCc1cc2c(cc1-3)OCO2 [16d, 9-O-(4-methylbenzyl)berberine chloride]  viability at 25 µM        48
4  COc1ccc2cc3[n+](cc2c1OCc1ccc(Br)cc1)CCc1cc2c(cc1-3)OCO2 [16g, 9-O-(4-brombenzyl)berberine chloride]  viability at 25 µM      46.7
5  COc1ccc2cc3[n+](cc2c1OCc1cccc(Br)c1)CCc1cc2c(cc1-3)OCO2 [16f, 9-O-(3-brombenzyl)berberine chloride]  viability at 25 µM      48.3
